test.system: Recombinant STAT6 protein (STAT6 (W123-T658)) (Homo sapiens, UniProt P42226)
Construct: Recombinant STAT6 protein (STAT6 (W123-T658))
test: STAT6 Fluorescence Polarization (FP) Assay
Assay type: binding
condition.details: STAT6 (W123-T658) 250 nM, probe 5-FAM-Ap[…]-NH2 2 nM, 45-minute incubation; read-out: STAT6 (FP assay IC50 class)
pIC50: −log10 of the molar value.
We begin with a simple list: items and their reported pIC50.

Example results:
compound | pIC50
CC1(c2ccccn2)CN(C(=O)[C@@H]2CC[C@@H]3CCC[C@H](NC(=O)c4cc5cc(C(F)(F)P(=O)(O)O)ccc5s4)C(=O)N32)C1 | 5.52 to 6.52
O=C(N[C@H]1CCCC[C@H]2CC[C@@H](C(=O)N3CCC(c4cccnc4)C3)N2C1=O)c1cc2cc(CP(=O)(O)O)ccc2s1 (stereo partly shown) | 4.52 to 5.52
COc1c(F)cncc1C1CN(C(=O)[C@@H]2CC[C@@H]3CCC[C@H](NC(=O)c4cc5cc(C(F)P(=O)(O)O)ccc5s4)C(=O)N32)C1 (stereo partly shown) | 4.52 to 5.52

Request: So what does the record say about pIC50 for O=C(N[C@H]1CCC[C@H]2CC[C@@H](C(=O)N3CC(c4cnccc4N4CC5(COC5)C4)C3)N2C1=O)c1cc2cc(CP(=O)(O)O)ccc2s1 ?
Response: 4.52 to 5.52

Request: So what does the record say about pIC50 for CCOc1ccncc1C1CN(C(=O)[C@@H]2CC[C@@H]3CCC[C@H](NC(=O)c4cc5cc([C@H](F)P(=O)(O)O)ccc5s4)C(=O)N32)C1 (single isomer, unassigned) ?
Response: 4.52 to 5.52

Request: So what does the record say about pIC50 for O=C(N[C@H]1CCC[C@H]2CC[C@@H](C(=O)N3CC(c4cnccc4N4CCOCC4)C3)N2C1=O)c1cc2cc([C@@H](F)P(=O)(O)O)ccc2s1 (single isomer, unassigned) ?
Response: 4.52 to 5.52

###

We begin with a simple list: items and their reported pIC50.
test.system: pY641-STAT6 in PBMC (Homo sapiens)
Construct: Cryopreserved Peripheral Blood Mononuclear Cells (PBMC) are from AllCells; host or cells: cryopreserved PBMC
Sequence (P42226 1-847): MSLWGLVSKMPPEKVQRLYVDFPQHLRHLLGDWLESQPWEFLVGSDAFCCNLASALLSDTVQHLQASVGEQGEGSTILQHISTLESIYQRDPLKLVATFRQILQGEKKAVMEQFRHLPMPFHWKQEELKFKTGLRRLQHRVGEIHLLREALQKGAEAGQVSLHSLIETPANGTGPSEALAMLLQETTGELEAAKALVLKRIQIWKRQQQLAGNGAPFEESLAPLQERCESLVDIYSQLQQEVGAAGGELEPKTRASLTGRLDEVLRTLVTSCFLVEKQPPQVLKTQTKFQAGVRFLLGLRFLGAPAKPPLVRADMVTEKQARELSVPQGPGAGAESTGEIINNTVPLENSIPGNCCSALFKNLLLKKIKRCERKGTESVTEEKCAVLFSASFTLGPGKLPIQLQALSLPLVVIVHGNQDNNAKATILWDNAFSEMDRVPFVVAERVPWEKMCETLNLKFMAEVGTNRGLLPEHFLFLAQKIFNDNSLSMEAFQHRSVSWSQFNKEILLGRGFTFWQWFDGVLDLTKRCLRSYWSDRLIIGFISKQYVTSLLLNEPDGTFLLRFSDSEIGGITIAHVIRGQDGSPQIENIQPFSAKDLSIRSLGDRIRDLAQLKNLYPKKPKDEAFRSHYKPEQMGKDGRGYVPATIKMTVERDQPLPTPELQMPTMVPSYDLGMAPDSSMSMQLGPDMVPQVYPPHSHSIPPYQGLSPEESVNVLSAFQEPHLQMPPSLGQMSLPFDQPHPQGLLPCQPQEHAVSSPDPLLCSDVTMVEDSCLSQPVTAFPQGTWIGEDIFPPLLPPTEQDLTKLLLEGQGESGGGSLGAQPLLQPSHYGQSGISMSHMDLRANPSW
test: MSD-pSTAT-PBMC Assay (pSTAT6, IL-4 stimulated)
Format: cell-based
condition.details: STAT6, PBMC, compound 3 hrs, then 1 ng/mL IL-4 for 10 min; Table 115
pIC50: −log10 of the molar value.

compound | result
CCCOC(=O)[C@H](C)NP(=O)(Oc1ccccc1)C(F)c1ccc2sc(C(=O)N[C@H]3CCCC[C@H]4CC[C@@H](C(=O)N5C(=O)N(c6cccc7c6OC(F)(F)O7)C(=O)C56CC6)N4C3=O)cc2c1 (stereo partly shown) | < 5.52

Request: So what does the record say about pIC50 for CCCOC(=O)[C@H](C)N[P@@](=O)(Oc1ccccc1)[C@@H](F)c1ccc2sc(C(=O)N[C@H]3CCCC[C@H]4CC[C@@H](C(=O)N5C[C@@H](c6cccnc6)CC56CC6)N4C3=O)cc2c1 (stereo in doubt) [Compound 460] ?
Response: > 7.00

Request: So what does the record say about pIC50 for CC(C)CC(=O)SCCOP(=O)(Oc1cccc(C#N)c1)C(F)(F)c1ccc2sc(C(=O)N[C@H]3CCCC[C@H]4CC[C@@H](C(=O)N5C[C@H](c6ccccc6)[C@@H](C#N)C5)N4C3=O)cc2c1 (single isomer, unassigned) ?
Response: 6.00 to 7.00

Request: So what does the record say about pIC50 for CCCOC(=O)[C@H](C)NP(=O)(Cc1ccc2sc(C(=O)N[C@H]3CC4(CC[C@H]5CC[C@@H](C(=O)N6CC(c7cccnc7)C6)N5C3=O)CC4)cc2c1)Oc1ccccc1 (stereo partly shown) ?
Response: 5.52 to 6.00
